// pIC50 collected for UniProt P27958
pIC50: −log10 of the molar value.
OBSERVATION TYPE: pIC50

molecule="C[C@@H]1CCC2=C(CCCC2(C)C)[C@@]1(C)CC[C@H](CCCc1ccoc1)COS(=O)(=O)[O-].[Na+] [hal3, halisulfate 3]" quantitative_result=5.40
molecule=CC1(C)CCC[C@]2(C)[C@H]3CC/C(=C\OS(=O)(=O)[O-])[C@H](CCc4ccoc4)[C@@]3(C)CC[C@@H]12.[Na+] quantitative_result=5.52

====

Catalogue of molecules with associated pIC50
SUBJECT OF TEST: HCV NS3/4A protease (Hepatitis C virus genotype 1a)
Construct: NS3 protein with a two-fold excess of the NS4A cofactor peptide Pep4AK was prepared in 1× assay buffer
Sequence (P27958 1027-1657): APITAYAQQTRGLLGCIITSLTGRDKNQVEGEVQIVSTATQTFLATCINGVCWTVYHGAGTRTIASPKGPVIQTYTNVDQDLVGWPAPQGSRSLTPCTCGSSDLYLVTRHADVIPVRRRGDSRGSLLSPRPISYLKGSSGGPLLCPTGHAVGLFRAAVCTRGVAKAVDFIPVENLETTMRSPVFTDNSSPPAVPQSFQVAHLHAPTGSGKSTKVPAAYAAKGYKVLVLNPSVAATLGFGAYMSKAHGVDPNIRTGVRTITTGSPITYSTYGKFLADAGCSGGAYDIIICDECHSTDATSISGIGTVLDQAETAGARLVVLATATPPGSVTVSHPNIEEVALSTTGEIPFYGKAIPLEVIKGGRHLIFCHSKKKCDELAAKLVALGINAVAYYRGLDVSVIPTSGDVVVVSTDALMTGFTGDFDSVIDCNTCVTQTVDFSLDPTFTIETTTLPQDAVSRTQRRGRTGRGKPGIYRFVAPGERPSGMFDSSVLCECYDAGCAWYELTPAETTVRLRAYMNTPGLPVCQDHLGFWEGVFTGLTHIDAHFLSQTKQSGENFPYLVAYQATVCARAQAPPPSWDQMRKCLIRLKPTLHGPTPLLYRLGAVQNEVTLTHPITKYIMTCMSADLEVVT
METHOD NOTES: Fluorescence NS3 serine protease assay (FRET)
pIC50: −log10 of the molar value.
OBSERVATION TYPE: pIC50

molecule="C[C@@H]1CCC2=C(CCCC2(C)C)[C@@]1(C)CC[C@H](CCCc1ccoc1)COS(=O)(=O)[O-].[Na+] [hal3, halisulfate 3]" observation_type=pIC50 quantitative_result=4.85
molecule="CC1(C)CCC[C@]2(C)[C@H]3CC/C(=C\\OS(=O)(=O)[O-])[C@H](CCc4ccoc4)[C@@]3(C)CC[C@@H]12.[Na+] [suvanine]" observation_type=pIC50 quantitative_result=4.47

====

SUBJECT OF TEST: NS3 ATPase activity (Hepatitis C virus genotype 1a, UniProt P27958)
Sequence (P27958 1027-1657): as above
OBSERVATION TYPE: IC50

compound="CC1(C)CCC[C@]2(C)[C@H]3CC/C(=C\\OS(=O)(=O)[O-])[C@H](CCc4ccoc4)[C@@]3(C)CC[C@@H]12.[Na+] [suvanine]" result="7 µM"
compound="C[C@@H]1CCC2=C(CCCC2(C)C)[C@@]1(C)CC[C@H](CCCc1ccoc1)COS(=O)(=O)[O-].[Na+] [hal3, halisulfate 3]" result="8 µM"

Where do these numbers come from? They come from paper PMC3917281.
